# Test system: Huntingtin (HTT) transcripts
# Test Description: Quantitative splicing assay (HTT), qPCR
# Format: cell-based
# Test Settings: Homo sapiens; GM04724 (CAG 70/20) Huntington's disease patient lymphoblasts, 24 h, qPCR HTTex49_50; read-out: HTT Potency - Splicing: E49-50 EC50 (average)
pEC50: −log10 of the molar value.
Property Measured: pEC50

Illustrative cases are given below, each with its answer.
[
  {
    "Compound": "Cn1cc(-c2ccc(-c3ccc(O[C@@H]4C[C@H]5CCC[C@H](N5)[C@@H]4F)nn3)c(O)c2F)cn1 (single isomer, unassigned)",
    "Property Measured": "pEC50",
    "Measured": "7.30 to 7.80"
  },
  {
    "Compound": "Cn1ccc(-c2ccc(-c3ccc(O[C@H]4C[C@@H]5CCC[C@@H](N5)[C@H]4F)nn3)c(O)c2)cc1=O (single isomer, unassigned)",
    "Property Measured": "pEC50",
    "Measured": "7.30 to 7.80"
  }
]

Turning now to a further record.
If you can, please state the reported pEC50 value of CNC(=O)c1ccc2cc(-c3ccc(O[C@@H]4C[C@H]5CCC[C@H](N5)[C@@H]4F)nn3)c(O)cc2n1 (single isomer, unassigned) .
7.82 to 11.00

---

# Test system: MDR1
# Test Description: MDCK-MDR1 permeability assay (BBB penetration potential)
# Assay type: in vitro ADME
# Test Settings: dog, MDCK-MDR1, pH 7.4, MDCK-MDR1: Papp B-A
Please respond with TRUE when measured Papp B→A at 120 min, 5 μM is strictly beneath 40 ×10⁻⁶ cm/s, and with FALSE in all other cases.

Threshold test, Papp B→A at 120 min, 5 μM < 40 ×10⁻⁶ cm/s: Cn1cc(-c2cc(O)c(-c3ccc(O[C@@H]4C[C@H]5CCC[C@H](N5)[C@@H]4F)nn3)c(F)c2)cn1 (single isomer, unassigned)
TRUE

Threshold test, Papp B→A at 120 min, 5 μM < 40 ×10⁻⁶ cm/s: Cc1cncc(-c2ccc(-c3ccc(O[C@@H]4C[C@H]5CCC[C@H](N5)[C@@H]4F)nn3)c(O)c2)n1 (single isomer, unassigned)
FALSE

Threshold test, Papp B→A at 120 min, 5 μM < 40 ×10⁻⁶ cm/s: Oc1cc(-n2cccn2)ccc1-c1ccc(O[C@@H]2C[C@H]3CC[C@H](N3)[C@@H]2F)nn1 (single isomer, unassigned)
TRUE

Threshold test, Papp B→A at 120 min, 5 μM < 40 ×10⁻⁶ cm/s: Cc1cc(-c2ccc(-c3ccc(O[C@@H]4C[C@H]5CCC[C@H](N5)[C@@H]4F)nn3)c(O)c2)ccn1 (single isomer, unassigned)
TRUE

---

# System: MDR1-MDCK cell monolayers
# Test Description: MDCK-MDR1 permeability assay (BBB penetration potential)
# Format: in vitro ADME
# Test Settings: dog, MDCK-MDR1, 120 min, 5 μM, pH 7.4
This listing pairs compounds with measured MDCK-MDR1: % Recov A-B.
Give just the numeric value; % need not be written.

[
  {
    "Compound": "Oc1cc(-c2cn[nH]c2)ccc1-c1ccc(O[C@H]2C[C@@H]3CCC[C@@H](N3)[C@@H]2F)nn1 (single isomer, unassigned)",
    "Property Measured": "MDCK-MDR1: % Recov A-B",
    "Unit Label": "%",
    "Measured": 71
  },
  {
    "Compound": "Cn1ccc2cc(-c3ccc(O[C@@H]4C[C@@]5(C)CCC[C@](C)(N5)[C@@H]4F)nn3)c(O)cc2c1=O (single isomer, unassigned)",
    "Property Measured": "MDCK-MDR1: % Recov A-B",
    "Unit Label": "%",
    "Measured": 86
  },
  {
    "Compound": "Oc1cc(-c2nnco2)ccc1-c1ccc(O[C@H]2C[C@@H]3CC[C@@H](N3)[C@H]2F)nn1 (single isomer, unassigned)",
    "Property Measured": "MDCK-MDR1: % Recov A-B",
    "Unit Label": "%",
    "Measured": 92
  }
]

If you can, please state the reported MDCK-MDR1: % Recov A-B value of CNC(=O)c1ccc2cc(-c3ccc(O[C@@H]4C[C@H]5CCC[C@H](N5)[C@@H]4F)nn3)c(O)cc2n1 (single isomer, unassigned) .
88

If you can, please state the reported MDCK-MDR1: % Recov A-B value of Cn1ccc(-c2ccc(-c3ccc(O[C@@H]4C[C@H]5CCC[C@H](N5)[C@@H]4F)nn3)c(O)c2)cc1=O (single isomer, unassigned) .
94

If you can, please state the reported MDCK-MDR1: % Recov A-B value of Cc1cncc(-c2ccc(-c3ccc(O[C@@H]4C[C@H]5CCC[C@H](N5)[C@@H]4F)nn3)c(O)c2)c1 (single isomer, unassigned) .
68

---

This listing pairs compounds with measured MDCK-MDR1: % Recov B-A.
# System: MDR1-MDCK cell monolayers
# Test Description: MDCK-MDR1 permeability assay (BBB penetration potential)
# Format: in vitro ADME
# Test Settings: dog, MDCK-MDR1, 120 min, 5 μM, pH 7.4
Give just the numeric value; % need not be written.

[
  {
    "Compound": "Oc1cc(-n2ccc(F)n2)ccc1-c1ccc(O[C@@H]2C[C@H]3CCC[C@H](N3)[C@@H]2F)nn1 (single isomer, unassigned)",
    "Unit Label": "%",
    "Measured": 70
  }
]

If you can, please state the reported MDCK-MDR1: % Recov B-A value of Cn1c(=O)oc2cc(-c3ccc(O[C@H]4C[C@@H]5CCC[C@@H](N5)[C@H]4F)nn3)c(O)cc21 (single isomer, unassigned) .
75

If you can, please state the reported MDCK-MDR1: % Recov B-A value of COc1cc(-c2ccc(-c3ccc(O[C@H]4C[C@@H]5CCC[C@@H](N5)[C@H]4F)nn3)c(O)c2)cnn1 (single isomer, unassigned) .
85

---

This listing pairs compounds with measured efflux ratio at 120 min, 5 μM.
# Test system: MDR1
# Test Description: MDCK-MDR1 permeability assay (BBB penetration potential)
# Assay type: in vitro ADME
# Test Settings: dog, MDCK-MDR1, pH 7.4, MDCK-MDR1: Efflux
Number, no unit, nothing else.

Illustrative cases are given below, each with its answer.
[
  {
    "Compound": "N#Cc1ccc(-c2ccc(O[C@@H]3C[C@H]4CC[C@H](N4)[C@@H]3F)nn2)c(O)c1 (single isomer, unassigned) [111-ENT1]",
    "Target Or Test System": "MDR1",
    "efflux ratio at 120 min, 5 μM": 3
  },
  {
    "Compound": "Cn1cc(-c2ccc(-c3ccc(O[C@@H]4C[C@H]5CCC[C@H](N5)[C@@H]4F)nn3)c(O)c2)oc1=O (single isomer, unassigned) [97-ENT1]",
    "Target Or Test System": "MDR1",
    "efflux ratio at 120 min, 5 μM": 14
  },
  {
    "Compound": "Cn1cc(-c2ccc(-c3ccc(O[C@H]4C[C@@H]5CCC[C@@H](N5)[C@H]4F)nn3)c(O)c2)cn1 (single isomer, unassigned) [1-ENT2]",
    "Target Or Test System": "MDR1",
    "efflux ratio at 120 min, 5 μM": 6
  }
]

If you can, please state the reported efflux ratio at 120 min, 5 μM value of Oc1cc(-c2ccn3cnnc3c2)ccc1-c1ccc(O[C@@H]2C[C@H]3CCC[C@H](N3)[C@@H]2F)nn1 (single isomer, unassigned) [86-ENT1] .
46

If you can, please state the reported efflux ratio at 120 min, 5 μM value of Cn1ccc(-c2ccc(-c3ccc(O[C@H]4C[C@@H]5CCC[C@@H](N5)[C@H]4F)nn3)c(O)c2)nc1=O (single isomer, unassigned) [107-ENT2] .
100

If you can, please state the reported efflux ratio at 120 min, 5 μM value of Oc1cc(-c2ccc3nccn3c2)ccc1-c1ccc(O[C@H]2C[C@@H]3CCC[C@@H](N3)[C@H]2F)nn1 (single isomer, unassigned) [84-ENT2] .
14

---

# System: MDR1
# Test Description: MDCK-MDR1 permeability assay (BBB penetration potential)
# Format: in vitro ADME
# Test Settings: dog, MDCK-MDR1, pH 7.4, MDCK-MDR1: Papp A-B
This listing pairs compounds with measured Papp A→B at 120 min, 5 μM.
Give just the numeric value; ×10⁻⁶ cm/s need not be written.

Illustrative cases are given below, each with its answer.
[
  {
    "Compound": "Oc1cc(-c2ccn3cnnc3c2)ccc1-c1ccc(O[C@@H]2C[C@H]3CCC[C@H](N3)[C@@H]2F)nn1 (single isomer, unassigned)",
    "Unit Label": "×10⁻⁶ cm/s",
    "Papp A→B at 120 min, 5 μM": 0.54
  },
  {
    "Compound": "Oc1cc(-c2ccc3nccn3c2)ccc1-c1ccc(O[C@H]2C[C@@H]3CCC[C@@H](N3)[C@H]2F)nn1 (single isomer, unassigned)",
    "Unit Label": "×10⁻⁶ cm/s",
    "Papp A→B at 120 min, 5 μM": 1.63
  },
  {
    "Compound": "Oc1cc(-c2cnccn2)ccc1-c1ccc(O[C@H]2C[C@@H]3CCC[C@@H](N3)[C@H]2F)nn1 (single isomer, unassigned)",
    "Unit Label": "×10⁻⁶ cm/s",
    "Papp A→B at 120 min, 5 μM": 9.52
  },
  {
    "Compound": "Cc1nnc(-c2ccc(-c3ccc(O[C@@H]4C[C@H]5CCC[C@H](N5)[C@@H]4F)nn3)c(O)c2)o1 (single isomer, unassigned)",
    "Unit Label": "×10⁻⁶ cm/s",
    "Papp A→B at 120 min, 5 μM": 6.2
  },
  {
    "Compound": "Cc1cncc(-c2ccc(-c3ccc(O[C@H]4C[C@@H]5CCC[C@@H](N5)[C@H]4F)nn3)c(O)c2)n1 (single isomer, unassigned)",
    "Unit Label": "×10⁻⁶ cm/s",
    "Papp A→B at 120 min, 5 μM": 7.93
  }
]

Which Papp A→B at 120 min, 5 μM is reported with MDR1 for this entry: Cn1ccc2cc(O)c(-c3ccc(O[C@H]4C[C@]5(C)CC[C@@](C)(N5)[C@H]4F)nn3)cc2c1=O (single isomer, unassigned) ?
7.86

Which Papp A→B at 120 min, 5 μM is reported with MDR1 for this entry: Oc1cc(-c2cc[nH]n2)ccc1-c1ccc(O[C@H]2C[C@@H]3CCC[C@@H](N3)[C@H]2F)nn1 (single isomer, unassigned) ?
1.18

Which Papp A→B at 120 min, 5 μM is reported with MDR1 for this entry: Cn1ccc(-c2ccc(-c3ccc(O[C@H]4C[C@]5(C)CCC[C@@](C)(N5)[C@H]4F)nn3)c(O)c2)cc1=O (single isomer, unassigned) ?
2.23

Which Papp A→B at 120 min, 5 μM is reported with MDR1 for this entry: Cn1cc(-c2cc(O)c(-c3ccc(O[C@H]4C[C@@H]5CCC[C@@H](N5)[C@H]4F)nn3)c(F)c2)cn1 (single isomer, unassigned) ?
4.5

Which Papp A→B at 120 min, 5 μM is reported with MDR1 for this entry: C[C@]12CC[C@](C)(N1)[C@H](F)[C@H](Oc1ccc(-c3ccc(-n4cccn4)cc3O)nn1)C2 (single isomer, unassigned) ?
7.44

Which Papp A→B at 120 min, 5 μM is reported with MDR1 for this entry: Oc1cc(-n2ccc(F)n2)ccc1-c1ccc(O[C@H]2C[C@@H]3CCC[C@@H](N3)[C@H]2F)nn1 (single isomer, unassigned) ?
6.9

Which Papp A→B at 120 min, 5 μM is reported with MDR1 for this entry: Oc1cc(-c2cn[nH]c2)ccc1-c1ccc(O[C@H]2C[C@@H]3CC[C@@H](N3)[C@H]2F)nn1 (single isomer, unassigned) ?
3.39
